Test system: Jurkat
Assay: cytotoxicity relative to DMSO, 18 h (ratio); higher = less cell death (drugs called cytotoxic fall below 1)
Conditions: 1 nM
Hi there, I'd appreciate the recorded cytotoxicity for every entry that follows.
Numbers only.

Before answering, review these 6 worked examples.
molecule: Cn1cc(-c2nc(NC3CCCCC3N)c(F)c3c2C(=O)NC3)cn1 (stereo not drawn) [TAK-659]
test-system: Jurkat
cytotoxicity: 0.994

molecule: CN(Cc1cnc2nc(N)nc(N)c2n1)c1ccc(C(=O)NC(CCC(=O)O)C(=O)O)cc1 (stereo not drawn) [Methotrexate]
test-system: Jurkat
cytotoxicity: 1.05

molecule: CC12C=CC(=O)C=C1CCC1C2C(=O)CC2(C)C1CCC2(O)C(=O)CO (stereo not drawn) [Prednisone]
test-system: Jurkat
cytotoxicity: 0.964

molecule: COc1cccc2c1c(O)c(C(=O)N(C)c1ccc(C(F)(F)F)cc1)c(=O)n2C [Tasquinimod]
test-system: Jurkat
cytotoxicity: 1

molecule: COC1CCC(N2C(=O)CNc3ncc(-c4ccc(C(C)(C)O)nc4)nc32)CC1 (stereo not drawn) [Onatasertib]
test-system: Jurkat
cytotoxicity: 1.12

molecule: CCS(=O)(=O)N1CCN(c2ccc(Nc3ncc(C(N)=O)c(NC4CC4)n3)cc2)CC1 [Cerdulatinib]
test-system: Jurkat
cytotoxicity: 1.03

Here are 2 molecules. What values of cytotoxicity were reported for them?
1. CC(Nc1cc(F)cc(F)c1)c1cc(C(=O)N(C)C)cc2c(=O)cc(N3CCOCC3)oc12 (stereo not drawn) [AZD-8186]
2. COc1ccc(S(=O)(=O)N(C(C)=O)c2ccccc2C=Cc2cc[n+]([O-])cc2)cc1 [HMN-214]

Reply:
[0.895, 1.11]

* * *

System: Jurkat
Assay: cytotoxicity relative to DMSO, 18 h (ratio); higher = less cell death (drugs called cytotoxic fall below 1)
Settings: 10000 nM
assay-endpoint: cytotoxicity
Give bare numbers.

molecule: CN1CCC(c2c(O)cc(O)c3c(=O)cc(-c4ccccc4Cl)oc23)C(O)C1 (stereo not drawn) [Alvocidib]
test-system: Jurkat
cytotoxicity: 0.526
--
molecule: NC1CC1c1ccccc1 (stereo not drawn) [Tranylcypromine]
test-system: Jurkat
cytotoxicity: 0.956
--
molecule: CC(C)Nc1cc(-c2c[nH]c(C(=O)NC(CO)c3cccc(Cl)c3)c2)c(Cl)cn1 (stereo not drawn) [Ulixertinib]
test-system: Jurkat
cytotoxicity: 0.777
--
molecule: COc1ccc(-c2ccc3ncc4c(c3c2)n(-c2ccc(N3CCNCC3)c(C(F)(F)F)c2)c(=O)n4C)cn1 [BGT-226]
test-system: Jurkat
cytotoxicity: 0.448
--
molecule: CC(C)CC(NC(=O)C(Cc1ccccc1)NC(=O)c1cnccn1)B(O)O (stereo not drawn) [Bortezomib]
test-system: Jurkat
cytotoxicity: 0.539
--
molecule: CC(C=CC(=O)NO)=CC(C)C(=O)c1ccc(N(C)C)cc1 (stereo not drawn) [Trichostatin-A]
test-system: Jurkat
cytotoxicity: 0.98
--
molecule: CC(Oc1cc(-c2cnn(C3CCNCC3)c2)cnc1N)c1c(Cl)ccc(F)c1Cl (stereo not drawn) [Crizotinib]
test-system: Jurkat
cytotoxicity: 0.768

Moving on to another molecule below.
Query: Request - read-out cytotoxicity | tested on Jurkat | molecule O=C(c1cc(Cc2n[nH]c(=O)c3ccccc23)ccc1F)N1CCN(C(=O)C2CC2)CC1 [Olaparib]
Reply: 0.977

* * *

System: Jurkat
Assay: cytotoxicity relative to DMSO, 18 h (ratio); higher = less cell death (drugs called cytotoxic fall below 1)
Conditions: 1 nM
assay-endpoint: cytotoxicity
Answers are plain numbers.

compound: CC(C)CC(=O)Nc1n[nH]c2c1CN(C(=O)C1CCN(C)CC1)C2(C)C
cytotoxicity: 0.914

Here are 4 compounds. What values of cytotoxicity were reported for them?
1. NC(=O)C1CCCc2c1[nH]c1ccc(Cl)cc21 (stereo not given)
2. CCn1c(=O)c(-c2ccn[nH]2)cc2c(C)nc(N)nc21
3. COCCN1CCN(Cc2ccc(-c3n[nH]c4c3C(=O)c3c(NC(=O)NN5CCOCC5)cccc3-4)cc2)CC1.Cl.Cl
4. Nc1ccccc1NC(=O)c1ccc(CNC(=O)OCc2cccnc2)cc1

Reply:
1. 0.974
2. 0.985
3. 0.969
4. 1.09
